# measured-on: L-lactate dehydrogenase (Plasmodium falciparum (isolate CDC / Honduras)) (UniProt Q27743)
# Sequence (Q27743 whole entry, looked up): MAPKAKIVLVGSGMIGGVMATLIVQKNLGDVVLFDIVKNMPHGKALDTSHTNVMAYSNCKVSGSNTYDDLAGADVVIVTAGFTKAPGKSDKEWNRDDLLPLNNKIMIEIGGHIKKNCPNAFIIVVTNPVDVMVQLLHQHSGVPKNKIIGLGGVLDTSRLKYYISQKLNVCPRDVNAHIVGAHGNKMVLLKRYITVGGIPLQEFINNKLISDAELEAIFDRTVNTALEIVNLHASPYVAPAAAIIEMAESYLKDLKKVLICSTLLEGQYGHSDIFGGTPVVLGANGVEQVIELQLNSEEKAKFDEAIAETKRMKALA
# experimental-details: PfLDH activity inhibition – cell lysate, 3D7 strain, counter-screen for P. falciparum growth inhibition project (AID 2304);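 further: 0% = vehicle and 100% = reference inhibitor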
# experimental-parameters: P. falciparum 3D7 crude extract, LDH APAD/NBT absorbance; at 2 µM; active compounds read high
quantity: inhibition (%)

>>> print(df.to_string())
                                    compound    quantity  uom  val
 0  CCN(CCCNc1nc(=S)[nH]c2cc(OC)c(OC)cc12)c1ccccc1  inhibition    %   -2
 1  CC1(C)CCC(C)(C)c2c1ccc(C1CCN(CCCCNC(=O)c3ccc(-c4ccc(C#N)cc4)cc3)CC1)c2O  inhibition    %    7
 2  O=C(CCc1cnc[nH]1)Nc1ccc(-c2cccc(-c3nc4ccccc4[nH]3)c2)cc1  inhibition    %    4
 3  O=C(Nc1ccc(-c2ccccc2)cc1)Nc1cccc(Cn2nc(Cl)c(N3CCNCC3)cc2=O)c1  inhibition    %   -2
 4  O=C1CSc2ccc(CNC3CCN(CCc4c(Cl)cnc5ccc(Cl)cc45)CC3)nc2N1  inhibition    %    2
 5  CCN(CC)S(=O)(=O)c1cc(-c2ccc(=O)n(CC(=O)c3ccc(C)cc3)n2)ccc1C  inhibition    %   -3
 6  OCC1CCN(Cc2ccc(-c3ccc(-c4nc5ccc(F)cc5[nH]4)s3)cc2)CC1  inhibition    %   -3
 7   Cc1csc(-c2nc(NCc3cccnc3)ncc2-c2ccsc2)n1  inhibition    %   -1
 8  O=C(NC1CCN(Cc2ccc3c(c2)OCCO3)CC1)c1ccc(-c2cccc(Cl)c2)s1  inhibition    %   -5
 9  O=[N+]([O-])c1cccc(CNCC2CCN(Cc3ccc(O)cc3)CC2)c1  inhibition    %    1
10  CCN1CCN(c2cc(C)c3cc(NC(=O)c4ccc([N+](=O)[O-])c(C)c4)ccc3n2)CC1  inhibition    %   -2
11  CN1CCCN(Cc2cccc(-c3ccc(CNC(=O)c4cccc(Cl)c4)c(F)c3)c2)CC1  inhibition    %   -2
12  O=C(COc1ccccc1)NC1CCN(c2ccnc3cc(Cl)ccc23)C1 (centres undefined)  inhibition    %   -5
13  O=[N+]([O-])c1cccc(C(Nc2ccccn2)c2ccc3cccnc3c2O)c1 (centres undefined)  inhibition    %    0
14  O=C(Nc1ccc(Cl)cc1)OCCn1nnnc1C(c1ccc(Cl)cc1)N1CCOCC1 (centres undefined)  inhibition    %    4
15  CN1CCN(Cc2ccc(-c3ccc4c(Nc5ccc(Oc6ccccc6)cc5)ccnc4c3)o2)CC1  inhibition    %    0
16  Cc1ccc(Oc2cnn(C)c(=O)c2Nc2cccc(C(=O)NCCc3ccccn3)c2)c(C)c1  inhibition    %   -4
17  COc1cccc(NC(=O)[C@H](C(C)C)n2c(=O)[nH]c3ccccc3c2=O)c1  inhibition    %   -1
18  Fc1ccc2nc(-c3ccc(-c4ccc(CN5CCC(CCN6CCCCC6)CC5)cc4)s3)[nH]c2c1  inhibition    %    3
19  COc1ccc(CCCN2C(=O)C(c3ccccc3)(c3ccccc3)N=C2N)cc1  inhibition    %    5
20  Cc1ccc(Nc2nc(C)cc(N3CCN(CCc4ccccc4)CC3)n2)cc1  inhibition    %   -9
21  CCCCNC[C@@H](O)[C@H](Cc1ccccc1)NC(=O)c1cc(NCC)cc(N2CCCCS2(=O)=O)c1  inhibition    %    2
22  COC(=O)c1ccc2c(-c3nc4ccc(OC)cc4[nH]3)c[nH]c2c1  inhibition    %    5
23  Cc1ccc(S(=O)(=O)N2CCCN(C(=O)c3cc(-c4ccccc4)n[nH]3)CC2)cc1  inhibition    %   -2
24  Cc1cccc2[nH]c(-c3ccc(-c4cccc(CNCc5cnn(-c6ccccc6)n5)c4)s3)nc12  inhibition    %   -1
25  C[C@@H](CNc1ccnc(Nc2ccc3[nH]c(=O)[nH]c3c2)n1)c1ccccc1  inhibition    %   -3
26  COCn1ncc2cc(-c3cccc(NC(=O)c4csc(NC(C)=O)n4)c3)ccc21  inhibition    %    7
27  CN(C)CCCOc1ccc(CNCC(C)(C)c2nc(-c3ccc(Cl)c(O)c3)c(-c3ccncc3)[nH]2)cc1  inhibition    %   -2
28  COc1ccc2nccc([C@@H](O)CN3CCC(NCc4ccc5c(c4)NC(=O)C(C)S5)CC3)c2c1 (some centres undefined)  inhibition    %    2
29       CNC(=O)c1[nH]c(-c2ccccc2)nc1NC(C)=O  inhibition    %   -2
30             O=C(NC(=O)c1ccccc1O)c1ccccc1O  inhibition    %   -2
31  COc1ccc(NC(=O)Nc2ccc(-c3ccccc3)cc2Cl)cc1N1CCN(C)CC1  inhibition    %    0
32  O=C(/C=C/c1ccc(Cl)c(Cl)c1)NCCCCCN1CCCC(c2c[nH]c3ccccc23)C1 (centres undefined)  inhibition    %    2
33  NC(=O)C1CCN(Cc2ccc(-c3ccc(-c4nc5ccc(C(F)(F)F)cc5[nH]4)s3)cc2)CC1  inhibition    %   -5
34  CC(C)CCN1CCC(Oc2ccc(NC(=O)c3cccs3)cc2Cl)C1 (centres undefined)  inhibition    %    2
35  Cc1cccc2[nH]c(-c3ccc(-c4cccc(CNCc5ccc(CN)cc5)c4)s3)nc12  inhibition    %   -2
36           Cc1nc(N)nc(N)c1CCCOc1ccc(Br)cc1  inhibition    %    1
37  COc1cc(OC)nc(C(Sc2ccc(NC(=O)c3cccs3)cc2)c2ccccc2)n1 (centres undefined)  inhibition    %   -1
38  NC(=O)c1sc(-n2cnc3ccc(OCC4CCNCC4)cc32)cc1OCc1ccccc1C(F)(F)F  inhibition    %   -6
